Assay: Mouse intestinal organoids' tolerance assay (alamarBlue)
Details: C57BL/6, mouse, mouse intestinal organoids (enteroids), Selective Index (SI) CC50/EC50 Ent/H. c, CC50 mouse enteroid / EC50 H. contortus
measure: selectivity ratio at 3 d
Just the number, please, no unit attached.

Provide measured selectivity ratio at 3 d value, entry: CCCCCCCCN=c1ccn(CCCCCCCCCCn2ccc(=NCCCCCCCC)cc2)cc1 [Octenidine, reference compound]
6.8

* * *

Tested on: C. elegans
Conditions: Table S2, C. elegans SS assay, 110 μM, 0 h, averages of 4 data points
measure: Percentage of motility inhibition 0 h (%)
Field: numeric (%). Do not append units.

For orientation, consider the following solved cases.
compound: CC(C)=CCCC(C(=O)O)C1CCC2(C)C3=C(CCC12C)C1(C)CCC(=O)C(C)(C)C1CC3 (stereo not drawn) [3-Dehydrotrametenolic acid]
measure: Percentage of motility inhibition 0 h
measured_number: 17
//
compound: CC(C)CCC[C@@H](C)[C@H]1CC[C@@]2(C)C3=C(CC[C@]12C)[C@@]1(C)CC[C@H](O)C(C)(C)[C@@H]1CC3 [24,25-Dihydrolanosterol]
measure: Percentage of motility inhibition 0 h
measured_number: 3
//
compound: C[N+](C)(CCOc1ccccc1)Cc1ccccc1.O=C([O-])c1cc2ccccc2cc1O [Bephenium (hydroxynaphthoate)]
measure: Percentage of motility inhibition 0 h
measured_number: 12
//
compound: O.O=C(O)[C@@H]1[C@H]2C[C@H]3c4[nH]c5ccccc5c4CCN3C[C@@H]2CC[C@@H]1O [Yohimbic acid (hydrate)]
measure: Percentage of motility inhibition 0 h
measured_number: 16
//
compound: Nc1ccc(S(=O)(=O)[N-]c2nccs2)cc1.[Na+] [Sulfathiazole (sodium)]
measure: Percentage of motility inhibition 0 h
measured_number: 15
//
compound: Nc1ccc2cc3ccc(N)cc3nc2c1.Nc1ccc2cc3ccc(N)cc3nc2c1.O=S(=O)(O)O [Proflavine (hemisulfate)]
measure: Percentage of motility inhibition 0 h
measured_number: 7

Provide measured Percentage of motility inhibition 0 h value, entry: Cc1cc(-n2c(=O)[nH]c(=O)n(C)c2=O)ccc1Oc1ccc(S(=O)(=O)C(F)(F)F)cc1 [Toltrazuril (sulfone)]
38

Provide measured Percentage of motility inhibition 0 h value, entry: CCCC(C(=O)O)c1c(C)nc2ccc(Cl)cc2c1-c1ccccc1 (stereo not drawn)
14

Provide measured Percentage of motility inhibition 0 h value, entry: O=C([O-])CCC(=O)[O-].[Na+].[Na+] [Disodium succinate]
19

Provide measured Percentage of motility inhibition 0 h value, entry: COc1cc2c[n+](C)c3c4cc5c(cc4ccc3c2cc1OC)OCO5.[Cl-] [Nitidine (chloride)]
0

Provide measured Percentage of motility inhibition 0 h value, entry: "COc1c(-c2ccccc2)oc2cc(O)cc(O)c2c1=O"
0

Provide measured Percentage of motility inhibition 0 h value, entry: Cl.O=C(c1ccc(OCCN2CCCCC2)cc1)c1c(-c2ccc(O)cc2)sc2cc(O)ccc12 [Raloxifene (hydrochloride)]
32

Provide measured Percentage of motility inhibition 0 h value, entry: COc1cc(O)c2c(=O)cc(-c3ccc(O)c(O)c3)oc2c1 [Hydroxygenkwanin]
11

Provide measured Percentage of motility inhibition 0 h value, entry: "Cc1c(O)c(C)c2c(c1O)C(=O)[C@H](Cc1ccc3c(c1)OCO3)CO2"
21

Provide measured Percentage of motility inhibition 0 h value, entry: C[C@@H](O)[C@H]1C(=O)N2C(C(=O)O)=C(S[C@@H]3CN[C@H](C(=O)N(C)C)C3)[C@H](C)[C@H]12.O.O.O [Meropenem (trihydrate)]
12

* * *

Catalogue of inhibition at 110 µM values
Tested on: C. elegans
Assay: microbe, parasite or virus in culture
Settings: Caenorhabditis elegans, 24 h, read-out: Inhibition (%) 110 μM (24 h), C. elegans L4 motility, 110 μM, 24 h, mean ± SD of four experiments
Field: numeric (%). Do not append units.

For orientation, consider the following solved cases.
compound: Cc1cc(O)cc(C)c1Cl [Chloroxylenol, reference compound]
tested_system: C. elegans
u: %
measured_number: 100

compound: O=C(/C=C/c1ccccc1)c1ccccc1
tested_system: C. elegans
u: %
measured_number: 85

compound: O=C(Nc1cc(Cl)cc(Cl)c1O)c1c(O)c(Cl)cc(Cl)c1Cl [Oxyclozanide, reference compound]
tested_system: C. elegans
u: %
measured_number: 93

compound: NC(=O)c1ncn([C@@H]2O[C@H](CO)[C@@H](O)[C@H]2O)n1 [Ribavirin, reference compound]
tested_system: C. elegans
u: %
measured_number: 76

compound: O=[N+]([O-])c1ccc(O)c2ncccc12 [Nitroxoline, reference compound]
tested_system: C. elegans
u: %
measured_number: 88

compound: CCOc1ccc2nc3cc(N)ccc3c(N)c2c1 [Ethacridine lactate, reference compound]
tested_system: C. elegans
u: %
measured_number: 87

Provide measured inhibition at 110 µM value, entry: CO/N=C1\C[C@]2(C[C@@H]3C[C@@H](C/C=C(\C)C[C@@H](C)/C=C/C=C4\CO[C@@H]5[C@H](O)C(C)=C[C@@H](C(=O)O3)[C@]45O)O2)O[C@H](/C(C)=C/C(C)C)[C@H]1C [Moxidectin, reference compound]
85

* * *

Tested on: C. elegans
Experiment: microbe, parasite or virus in culture
Conditions: Caenorhabditis elegans, 0 h, read-out: Percentage of motility inhibition 0 h
measure: inhibition at 110 µM
Field: value (include unit after the number)

For orientation, consider the following solved cases.
compound: CC1=C[C@H]2Cc3[nH]c(=O)ccc3[C@]3(C1)NCCC[C@H]23 [Huperzine B]
tested_system: C. elegans
result: 18%
//
compound: COc1c(O)cc2oc(-c3ccc(O)cc3)cc(=O)c2c1O [Hispidulin]
tested_system: C. elegans
result: 0%
//
compound: COC(=O)[C@@]12OC[C@]34[C@H]([C@@H](O)[C@@H]1O)[C@@]1(C)CC(=O)C(O)=C(C)[C@@H]1C[C@H]3OC(=O)[C@H](OC(=O)CC(C)C)[C@@H]24 [Bruceine A]
tested_system: C. elegans
result: 24%
//
compound: O=c1c(O)c(-c2cc(O)c(O)c(O)c2)oc2cc(O)cc(O)c12 [Myricetin]
tested_system: C. elegans
result: 30%

Provide measured inhibition at 110 µM value, entry: CC1=C2C[C@H]3[C@@H](CC=C4C[C@@H](O)CC[C@@]43C)[C@@H]2CC[C@]12O[C@@H]1C[C@H](C)CN[C@H]1[C@H]2C [Cyclopamine]
0%

* * *

Catalogue of Percentage of motility inhibition 0 h values
System: C. elegans
Conditions: Table S2, C. elegans SS assay, 110 μM, 0 h, averages of 4 data points

For orientation, consider the following solved cases.
compound: Cl.Nc1ncnc2nc[nH]c12 [Adenine (hydrochloride)]
Percentage of motility inhibition 0 h: 0%

compound: CC1(C)CC[C@]2(C(=O)O[C@@H]3O[C@H](CO)[C@@H](O)[C@H](O)[C@H]3O)[C@H](O)C[C@]3(C)C(=CC[C@@H]4[C@@]5(C)CC[C@H](O)C(C)(C)[C@@H]5CC[C@]43C)[C@@H]2C1 [Echinocystic acid 28-O-β-D-glucoside]
Percentage of motility inhibition 0 h: 36%

compound: CC(=O)O[C@@]12CO[C@@H]1C[C@@H](O)[C@@]1(C)C(=O)[C@H](O)C3=C(C)[C@@H](OC(=O)[C@H](O)[C@@H](NC(=O)c4ccccc4)c4ccccc4)C[C@@](O)([C@@H](OC(=O)c4ccccc4)[C@H]21)C3(C)C [7-Epi 10-desacetyl paclitaxel]
Percentage of motility inhibition 0 h: 0%

compound: O=C(/C=C\c1ccc(O)c(O)c1)N[C@@H](Cc1ccc(O)c(O)c1)C(=O)O [Clovamide]
Percentage of motility inhibition 0 h: 2%

Provide measured Percentage of motility inhibition 0 h value, entry: COC(=O)C1=CO[C@@H](O)[C@@H]2[C@@H](C)[C@@H](O)C[C@H]12 [Loganetin]
0%

* * *

System: C. elegans
Test: microbe, parasite or virus in culture
Settings: Caenorhabditis elegans, 0 h, read-out: Percentage of motility inhibition 0 h, Table S2, C. elegans SS assay, 110 μM, 0 h, averages of 4 data points
Catalogue of inhibition at 110 µM values
Field: numeric (%). Do not append units.

compound: COc1cc([C@@H]2c3cc4c(cc3[C@@H](O[C@@H]3O[C@@H]5CO[C@@H](C)O[C@H]5[C@H](O)[C@H]3O)[C@H]3COC(=O)[C@H]23)OCO4)cc(OC)c1O [Etoposide]
tested_system: C. elegans
u: %
inhibition at 110 µM: 0

Provide measured inhibition at 110 µM value, entry: O=c1cc(-c2ccccc2)oc2cccc(O)c12 [5‐Hydroxyflavone]
12

Provide measured inhibition at 110 µM value, entry: "O=c1c(O)c(-c2ccc(O)c(O)c2)oc2cc(O[C@@H]3O[C@H](CO)[C@@H](O)[C@H](O)[C@H]3O)cc(O)c12"
0

Provide measured inhibition at 110 µM value, entry: "C=C[C@H]1C[N@@]2CC[C@H]1C[C@@H]2[C@@H](O)c1ccnc2ccccc12"
6
